The reported numbers originate from paper PMC7659708.

# tested.on: T1, biotin-TUBA1A 440-451 (human)
# T1 construct: C-terminal tail of human alpha-tubulin TUBA1A, amino acids 440-451, tyrosinated; source: synthetic peptide (Thermo Fisher Scientific)
# T1 peptide: Biotin-VEGEGEEEGEEY
# assay.name: SPR; steady-state binding assay, Biacore-T200; biotinylated peptides immobilized on a streptavidin (SA) sensor chip at 100-300 response units; A1aY1 titrated from 0.031 to 200 µM; 1x HBS-P+ (10 mM Hepes, 150 mM NaCl, 0.05% surfactant P20), 30 µl/min; 1:1 binding considered, one site total fit
# measurement.context: both partners purified
Where no end group is shown, it is not given here. The star is where a group is joined. Biotin = O=C1N[C@H]2[C@H](CS[C@H]2CCCCC(=O)*)N1
property.label: Kd (µM)
Give the number; µM is assumed, so skip it.

Prompt line: Could you tell me which Kd is on file for A1aY1 binder (designed binder, A1aY1, an SSO7D mutant selected from a combinatorial yeast display library; (His6, thrombin site, A1aY1); Protein used in the SPR steady-state titrations; The results say 'without any tags'; the methods describe the stored protein as 9.3 kD, which is the size with His6 and thrombin site, and tell of thrombin cleavage only for the NMR sample; also called tyrosination sensor; source: E. coli …) MATVKFKYKGEEKQVDISKILSVGRYGKLIHFLYDLGGGKAGMGMVSEKDAPKELLQMLEKQKK ?
Response line: 1.6
